Numbers sourced from patent US8569344B2.

Target: human α1G T-type channels (Homo sapiens)
Construct: expressed in transfected cells; host or cells: HEK 293
Assay: T-type calcium channel block, whole cell patch clamp in HEK cells (α1G)
Assay type: cell-based
Conditions: HEK cells, patch clamp, mainly non-inactivated protocol; values above 10 μM shown as 10 μM, below 0.30 μM shown as 0.30 μM; read-out: T-type Calcium Channel Block α1G IC50
READOUT KIND: IC50

Which IC50 value is on record for CC(C)(C)C(=O)NCCN1CCC(CNC(=O)/C=C/c2cc(F)cc(F)c2)CC1 ?
> 10000 nM

Would you kindly repeat that for Cc1cc(F)cc(C(=O)NCC2CCN(CC(=O)N3CCC[C@H]3C(F)(F)F)CC2)c1 ?
< 300 nM

Would you kindly repeat that for CCC1CCCN1CC(=O)N1CCC(CNC(=O)c2cc(C(F)(F)F)cc(C(F)(F)F)c2)CC1 (stereo not drawn) ?
480 nM

Would you kindly repeat that for Cc1cc(F)cc(C(=O)NCC2CCN(CC(=O)NC3CCCC3)CC2)c1 ?
430 nM

Would you kindly repeat that for CN(C(=O)CN1CCC(CNC(=O)c2cc(F)cc(Cl)c2)CC1)C1(C)CCC1 ?
< 300 nM

Would you kindly repeat that for CC(C)(C)NC(=O)CN1CCC(CNC(=O)Cc2cc(C(F)(F)F)cc(C(F)(F)F)c2)CC1 ?
1220 nM

Would you kindly repeat that for O=C(NCC1CCN(CCNC(=O)C2(C(F)(F)F)CCC2)CC1)c1cc(C(F)(F)F)cc(C(F)(F)F)c1 ?
< 300 nM

Would you kindly repeat that for COc1cc(F)cc(C(=O)NCC2CCN(CC(=O)NC3(C4CCOCC4)CC3)CC2)c1 ?
400 nM

Would you kindly repeat that for CC(C)(C(=O)NCCN1CCC(CNC(=O)c2cccc(Cl)c2)CC1)C(F)(F)F ?
< 300 nM

Would you kindly repeat that for CC1(NC(=O)CN2CCC(CNC(=O)c3ccccc3)CC2)CCC1 ?
> 10000 nM

Would you kindly repeat that for CCOC(=O)NCCN1CCC(CNC(=O)c2cc(C(F)(F)F)cc(C(F)(F)F)c2)CC1 ?
4300 nM

Would you kindly repeat that for CC(C)(C)NC(=O)CN1CCC(CNC(=O)c2cc(F)cc(F)c2)CC1 ?
800 nM

Would you kindly repeat that for O=C(/C=C/c1cc(F)cc(F)c1)NCC1CCN(CCNS(=O)(=O)C2CC2)CC1 ?
> 10000 nM

Would you kindly repeat that for COc1cc(OC)cc(C(=O)NCC2CCN(CC(=O)NC3(C)CCC3)CC2)c1 ?
< 300 nM

Would you kindly repeat that for CCCNC(=O)CN1CCC(CNC(=O)c2cc(C)cc(C)c2)CC1 ?
> 10000 nM

Would you kindly repeat that for CC(C)(C)C(=O)NCCN1CCC(CNC(=O)c2cc(F)cc(F)c2)CC1 ?
5180 nM

Would you kindly repeat that for Cc1cc(C)cc(C(=O)NCC2CCN(CC(=O)NC(C)(C)C)CC2)c1 ?
< 300 nM

Would you kindly repeat that for O=C(NCC1CCN(CCNC(=O)C2CCCC2)CC1)c1cc(Br)cc(Br)c1 ?
< 300 nM

Would you kindly repeat that for CC(C)(CO)NC(=O)CN1CCC(CNC(=O)c2cc(C(F)(F)F)cc(C(F)(F)F)c2)CC1 ?
< 300 nM

Would you kindly repeat that for CC(C)(C)NC(=O)CN1CCC(CNC(=O)/C=C/c2cc(Cl)cc(Cl)c2)CC1 ?
1600 nM

Would you kindly repeat that for CCCNC(=O)CN1CCC(CNC(=O)c2cc(C(F)(F)F)cc(C(F)(F)F)c2)CC1 ?
< 300 nM

Would you kindly repeat that for CC(C)(C)OC(=O)NCCN1CCC(CNC(=O)c2ccccc2OC(F)(F)F)CC1 ?
> 10000 nM

Would you kindly repeat that for CC(C)(C)C(O)CN1CCC(CC(=O)NCCc2ccc(F)cc2)CC1 (stereo not drawn) ?
> 10000 nM

Would you kindly repeat that for CC1(NC(=O)CN2CCC(CNC(=O)c3cc(F)cc(C(F)(F)F)c3)CC2)CCC1 ?
< 300 nM

Would you kindly repeat that for CC(C)(C)C(O)C(=O)N1CCC(CNC(=O)c2cc(C(F)(F)F)cc(C(F)(F)F)c2)CC1 (stereo not drawn) ?
> 10000 nM

Would you kindly repeat that for CN(C(=O)CN1CCC(CNC(=O)c2cccc(C(F)(F)F)c2)CC1)C(C)(C)C ?
980 nM

Would you kindly repeat that for CC(C)NC(=O)CN1CCC(CNC(=O)c2cc(F)cc(Cl)c2)CC1 ?
3310 nM

Would you kindly repeat that for NC1(C(=O)NCCN2CCC(CNC(=O)c3cc(F)cc(C(F)(F)F)c3)CC2)CCC1 ?
> 10000 nM

Would you kindly repeat that for CC(C)NC(=O)CN1CCC(CNC(=O)c2cccc(Cl)c2)CC1 ?
> 10000 nM

Would you kindly repeat that for O=C(NCC1CCN(CC(=O)N2CC[C@H](C(F)(F)F)C2)CC1)c1cc(F)cc(C(F)(F)F)c1 ?
< 300 nM

Would you kindly repeat that for O=C(CN1CCC(CNC(=O)c2cccc(Cl)c2)CC1)NN1CCCCC1 ?
2650 nM

Would you kindly repeat that for O=C(NCC1CCN(CCNC(=O)C2(C(F)(F)F)CCC2)CC1)c1cc(F)cc(Cl)c1 ?
< 300 nM

Would you kindly repeat that for CN(CCN1CCC(CNC(=O)c2cc(F)cc(C(F)(F)F)c2)CC1)C(=O)C1CCCC1 ?
460 nM

----------
Biological target: human α1G T-type channels (Homo sapiens, UniProt O43497)
Construct: expressed in transfected cells; host or cells: HEK 293
Sequence (O43497 whole entry): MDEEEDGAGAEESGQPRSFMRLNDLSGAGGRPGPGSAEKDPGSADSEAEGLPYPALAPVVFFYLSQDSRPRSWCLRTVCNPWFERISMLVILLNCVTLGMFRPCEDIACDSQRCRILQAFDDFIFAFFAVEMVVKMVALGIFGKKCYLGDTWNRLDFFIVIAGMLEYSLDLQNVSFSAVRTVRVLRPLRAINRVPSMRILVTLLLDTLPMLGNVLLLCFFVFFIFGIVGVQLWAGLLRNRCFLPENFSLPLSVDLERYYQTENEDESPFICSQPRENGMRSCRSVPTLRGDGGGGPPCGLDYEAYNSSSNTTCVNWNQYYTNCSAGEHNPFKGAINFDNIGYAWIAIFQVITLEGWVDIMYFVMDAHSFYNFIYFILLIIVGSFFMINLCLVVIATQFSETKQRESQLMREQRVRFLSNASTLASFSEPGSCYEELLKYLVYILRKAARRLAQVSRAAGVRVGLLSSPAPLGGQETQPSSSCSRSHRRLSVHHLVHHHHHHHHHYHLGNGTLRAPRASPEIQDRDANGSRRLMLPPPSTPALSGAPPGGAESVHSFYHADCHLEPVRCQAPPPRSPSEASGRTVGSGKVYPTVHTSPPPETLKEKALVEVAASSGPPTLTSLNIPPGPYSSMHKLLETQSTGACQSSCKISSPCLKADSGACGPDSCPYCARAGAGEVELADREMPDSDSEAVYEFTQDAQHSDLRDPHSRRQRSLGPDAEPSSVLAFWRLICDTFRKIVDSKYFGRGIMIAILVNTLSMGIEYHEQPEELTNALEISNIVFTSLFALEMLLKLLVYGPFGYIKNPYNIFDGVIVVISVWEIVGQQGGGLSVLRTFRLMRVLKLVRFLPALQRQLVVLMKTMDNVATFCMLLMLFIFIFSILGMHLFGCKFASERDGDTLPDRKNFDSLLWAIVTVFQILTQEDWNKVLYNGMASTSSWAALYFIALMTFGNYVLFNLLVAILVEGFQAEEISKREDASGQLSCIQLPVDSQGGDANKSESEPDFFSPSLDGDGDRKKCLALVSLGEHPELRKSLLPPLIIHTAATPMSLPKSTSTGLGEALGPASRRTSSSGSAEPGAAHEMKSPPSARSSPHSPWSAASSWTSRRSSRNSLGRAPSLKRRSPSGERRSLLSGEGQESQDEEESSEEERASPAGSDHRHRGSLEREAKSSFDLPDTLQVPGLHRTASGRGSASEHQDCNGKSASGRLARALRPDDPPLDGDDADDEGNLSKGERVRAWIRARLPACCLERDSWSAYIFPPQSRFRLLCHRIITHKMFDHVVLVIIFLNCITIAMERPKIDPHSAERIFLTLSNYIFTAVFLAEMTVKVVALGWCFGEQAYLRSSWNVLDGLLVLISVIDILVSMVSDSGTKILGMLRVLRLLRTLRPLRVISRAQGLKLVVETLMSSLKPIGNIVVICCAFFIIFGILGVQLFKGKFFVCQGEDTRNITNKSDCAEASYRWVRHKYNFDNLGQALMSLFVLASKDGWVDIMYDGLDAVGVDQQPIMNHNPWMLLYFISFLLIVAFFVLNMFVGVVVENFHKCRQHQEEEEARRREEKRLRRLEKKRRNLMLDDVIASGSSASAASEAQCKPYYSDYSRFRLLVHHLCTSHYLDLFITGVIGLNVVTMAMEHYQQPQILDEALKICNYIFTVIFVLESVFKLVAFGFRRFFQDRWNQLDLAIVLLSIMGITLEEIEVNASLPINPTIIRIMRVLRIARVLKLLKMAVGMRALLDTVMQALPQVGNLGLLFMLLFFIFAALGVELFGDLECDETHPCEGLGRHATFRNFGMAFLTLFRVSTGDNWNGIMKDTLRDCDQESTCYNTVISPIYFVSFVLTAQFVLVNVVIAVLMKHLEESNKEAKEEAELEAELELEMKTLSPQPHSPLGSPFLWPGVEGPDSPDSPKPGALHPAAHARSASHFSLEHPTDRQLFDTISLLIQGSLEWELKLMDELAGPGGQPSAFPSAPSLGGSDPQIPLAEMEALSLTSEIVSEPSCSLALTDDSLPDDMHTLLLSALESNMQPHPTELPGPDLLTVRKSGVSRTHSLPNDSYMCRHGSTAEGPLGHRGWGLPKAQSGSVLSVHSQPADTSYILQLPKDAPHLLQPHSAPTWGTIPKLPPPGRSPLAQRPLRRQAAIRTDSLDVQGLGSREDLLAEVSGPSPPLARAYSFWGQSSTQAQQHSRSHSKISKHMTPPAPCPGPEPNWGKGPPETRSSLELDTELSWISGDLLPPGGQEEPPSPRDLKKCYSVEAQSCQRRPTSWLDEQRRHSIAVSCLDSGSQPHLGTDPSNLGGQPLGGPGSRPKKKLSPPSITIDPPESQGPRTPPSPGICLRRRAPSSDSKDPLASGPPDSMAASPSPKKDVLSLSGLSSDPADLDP
Test: T-type calcium channel block, whole cell patch clamp in HEK cells (α1G)
Assay type: cell-based
Conditions: HEK cells, patch clamp, mainly non-inactivated protocol; values above 10 μM shown as 10 μM, below 0.30 μM shown as 0.30 μM; read-out: T-type Calcium Channel Block α1G IC50
Description: T-type calcium channel blocking activity was assayed in human embryonic kidney cells, HEK 293, stably transfected with the T-type calcium channel subunits. […] Standard patch-clamp techniques were employed to identify blockers of T-type currents. […] Data were analyzed using Clampfit (Axon Instruments) and SigmaPlot 4.0 (Jandel Scientific). […]
pIC50: −log10 of the molar value.
READOUT KIND: pIC50

Which pIC50 value is on record for CCS(=O)(=O)NC1(CN2CCC(CNC(=O)c3cc(C(F)(F)F)cc(C(F)(F)F)c3)CC2)CCCC1 ?
> 6.52

Would you kindly repeat that for CC(C)(C)OC(=O)NCCN1CCC(CNC(=O)c2ccc(F)cc2F)CC1 ?
< 5.00

Would you kindly repeat that for CC(C)(C)CC(=O)N1CCC[C@H]1CN1CCC(CNC(=O)c2cc(F)cc(C(F)(F)F)c2)CC1 ?
6.36

Would you kindly repeat that for CC(C)(C)C(O)CN1CCC(CC(=O)NCc2cccc(OC(F)F)c2)CC1 (centres unmarked) ?
< 5.00

Would you kindly repeat that for COc1cc(OC)cc(C(=O)NCC2CCN(CC(=O)NC(C)C)CC2)c1 ?
5.48

Would you kindly repeat that for Cc1cc(F)cc(C(=O)NCC2CCN(CCNS(=O)(=O)C(F)(F)F)CC2)c1 ?
< 5.00

Would you kindly repeat that for CN(CCN1CCC(CNC(=O)c2cc(F)cc(C(F)(F)F)c2)CC1)C(=O)C(C)(C)C ?
6.51

Would you kindly repeat that for CC(C)(C)OC(=O)NC(CN1CCC(CC(=O)NCCc2c[nH]c3ccc(F)cc23)CC1)C(C)(C)C (centres unmarked) ?
< 5.00

----------
Biological target: hERG K+ channel (Homo sapiens, UniProt Q12809)
Sequence (Q12809 whole entry): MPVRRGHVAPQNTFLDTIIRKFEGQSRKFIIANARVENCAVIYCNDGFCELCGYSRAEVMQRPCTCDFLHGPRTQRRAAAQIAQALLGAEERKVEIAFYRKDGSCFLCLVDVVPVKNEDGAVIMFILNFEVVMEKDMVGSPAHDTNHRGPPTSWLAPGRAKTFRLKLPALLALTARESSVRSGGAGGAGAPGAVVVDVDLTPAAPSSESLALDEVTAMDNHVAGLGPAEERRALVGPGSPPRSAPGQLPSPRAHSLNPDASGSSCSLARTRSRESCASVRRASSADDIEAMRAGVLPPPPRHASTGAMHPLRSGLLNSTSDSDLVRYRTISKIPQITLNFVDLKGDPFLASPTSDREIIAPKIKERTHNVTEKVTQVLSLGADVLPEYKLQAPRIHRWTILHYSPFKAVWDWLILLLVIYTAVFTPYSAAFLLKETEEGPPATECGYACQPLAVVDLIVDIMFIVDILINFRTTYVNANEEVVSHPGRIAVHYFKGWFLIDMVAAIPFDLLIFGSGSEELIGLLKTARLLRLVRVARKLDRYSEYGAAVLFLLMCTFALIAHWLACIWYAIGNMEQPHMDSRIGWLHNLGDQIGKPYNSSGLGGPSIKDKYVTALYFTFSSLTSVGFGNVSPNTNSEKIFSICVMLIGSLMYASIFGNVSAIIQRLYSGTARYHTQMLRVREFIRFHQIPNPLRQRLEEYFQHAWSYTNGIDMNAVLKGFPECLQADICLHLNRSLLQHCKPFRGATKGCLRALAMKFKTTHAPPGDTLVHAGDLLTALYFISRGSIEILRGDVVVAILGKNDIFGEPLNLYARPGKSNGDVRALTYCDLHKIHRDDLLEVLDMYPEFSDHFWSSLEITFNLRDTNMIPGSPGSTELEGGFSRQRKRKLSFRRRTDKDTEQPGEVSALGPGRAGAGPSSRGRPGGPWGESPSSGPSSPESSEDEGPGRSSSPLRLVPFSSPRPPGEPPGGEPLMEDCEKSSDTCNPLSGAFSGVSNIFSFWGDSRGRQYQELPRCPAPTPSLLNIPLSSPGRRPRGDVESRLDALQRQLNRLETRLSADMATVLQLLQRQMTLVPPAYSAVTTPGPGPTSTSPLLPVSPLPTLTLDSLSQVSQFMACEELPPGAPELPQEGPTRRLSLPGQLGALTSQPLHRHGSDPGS
Test: hERG K+ Channel Block
Format: cell-based
Provide the recorded pIC50 for the entries that follow.
Expect pIC50 as a plain number equal to -log10 of the molar concentration.

Param readout = pIC50; param system = hERG K+ channel (Homo sapiens, UniProt Q12809); param query = CN(C(=O)CN1CCC(CNC(=O)c2cc(Cl)cc(Cl)c2)CC1)C(C)(C)C [Compound 552] ; response: value
5.74

Would you kindly repeat that for CC(C)(C(=O)NCCN1CCC(CNC(=O)c2cc(F)cc(Cl)c2)CC1)C(F)(F)F [Compound 495] ?
5.39

Would you kindly repeat that for CC1(C)COCCN1C(=O)CN1CCC(CNC(=O)c2cc(C(F)(F)F)cc(C(F)(F)F)c2)CC1 [Compound 578] ?
5.27

Would you kindly repeat that for CC(C)CS(=O)(=O)NCCN1CCC(CNC(=O)c2cc(F)cc(C(F)(F)F)c2)CC1 [Compound 26] ?
5.59

Would you kindly repeat that for O=C(NCC1CCN(CCNC(=O)C2(C(F)(F)F)CC2)CC1)c1cc(F)cc(Cl)c1 [Compound 472] ?
5.55

Would you kindly repeat that for CC(C)(C)NC(=O)CN1CCC(CNC(=O)c2cc(F)cc(C(F)(F)F)c2)CC1 [Compound 376] ?
4.96

Would you kindly repeat that for CN(C(=O)CN1CCC(CNC(=O)c2cc(F)cc(Cl)c2)CC1)C(C)(C)C [Compound 544] ?
5.22
